Assign % inhibition of biotinylated nAbs to each entry below.
Molecular target: T1, EBV gp350 expressed on the surface of stably transfected CHO cells (Epstein-Barr virus, UniProt P03200 1-907)
T1 construct: also called native gp350; gp350 expressing CHO cells
T1 sequence: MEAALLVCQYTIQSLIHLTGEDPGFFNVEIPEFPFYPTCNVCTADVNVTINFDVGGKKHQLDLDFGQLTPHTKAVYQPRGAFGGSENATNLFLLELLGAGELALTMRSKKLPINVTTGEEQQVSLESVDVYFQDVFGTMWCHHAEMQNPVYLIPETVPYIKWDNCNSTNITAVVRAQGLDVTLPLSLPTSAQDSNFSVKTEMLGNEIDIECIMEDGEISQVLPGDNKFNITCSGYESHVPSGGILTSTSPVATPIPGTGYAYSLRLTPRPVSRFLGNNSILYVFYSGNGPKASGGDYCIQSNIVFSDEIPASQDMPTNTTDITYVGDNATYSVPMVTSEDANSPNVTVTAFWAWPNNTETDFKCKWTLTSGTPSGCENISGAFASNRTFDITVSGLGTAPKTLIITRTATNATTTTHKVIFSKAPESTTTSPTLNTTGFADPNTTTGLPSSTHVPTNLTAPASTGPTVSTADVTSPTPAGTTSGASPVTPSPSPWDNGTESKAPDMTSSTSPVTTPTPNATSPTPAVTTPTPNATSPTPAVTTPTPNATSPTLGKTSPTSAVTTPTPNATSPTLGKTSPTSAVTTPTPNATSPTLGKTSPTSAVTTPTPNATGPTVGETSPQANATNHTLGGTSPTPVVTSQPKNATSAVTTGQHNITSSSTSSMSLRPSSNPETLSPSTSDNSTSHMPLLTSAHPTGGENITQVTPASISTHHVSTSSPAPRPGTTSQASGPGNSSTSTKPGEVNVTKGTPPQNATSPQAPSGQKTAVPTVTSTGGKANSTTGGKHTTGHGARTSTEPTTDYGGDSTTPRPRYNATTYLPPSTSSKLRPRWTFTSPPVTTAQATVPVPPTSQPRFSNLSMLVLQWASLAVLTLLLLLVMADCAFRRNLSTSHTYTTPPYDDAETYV
Assay: cross-competition on gp350-CHO cells (flow), unlabeled 500 µg/ml; competitor: biotinylated HB11
Give bare numbers, in %.

* HB20 (antibody, V domains shown) VH: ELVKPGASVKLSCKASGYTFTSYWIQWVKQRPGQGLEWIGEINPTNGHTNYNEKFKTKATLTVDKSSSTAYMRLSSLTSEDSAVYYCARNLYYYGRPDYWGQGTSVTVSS VL: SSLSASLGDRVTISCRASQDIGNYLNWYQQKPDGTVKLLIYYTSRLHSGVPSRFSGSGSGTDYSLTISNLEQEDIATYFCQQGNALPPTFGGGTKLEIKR | 89

Endpoint output: % inhibition of biotinylated nAbs of HB5 (antibody, V domains shown, also called mHB5) VH: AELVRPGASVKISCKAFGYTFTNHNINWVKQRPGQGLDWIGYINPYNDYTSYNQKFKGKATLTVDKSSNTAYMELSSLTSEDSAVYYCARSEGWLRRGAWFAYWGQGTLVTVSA VL: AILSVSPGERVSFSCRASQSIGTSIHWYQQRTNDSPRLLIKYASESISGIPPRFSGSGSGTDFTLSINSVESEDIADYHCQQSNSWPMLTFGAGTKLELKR . Value?
93
